Molecular target: T1, PTHR1 on CHO-K1/Ga15/PTHR1 cells (UniProt Q03431 27-593, limits assumed)
T1 sequence (looked up): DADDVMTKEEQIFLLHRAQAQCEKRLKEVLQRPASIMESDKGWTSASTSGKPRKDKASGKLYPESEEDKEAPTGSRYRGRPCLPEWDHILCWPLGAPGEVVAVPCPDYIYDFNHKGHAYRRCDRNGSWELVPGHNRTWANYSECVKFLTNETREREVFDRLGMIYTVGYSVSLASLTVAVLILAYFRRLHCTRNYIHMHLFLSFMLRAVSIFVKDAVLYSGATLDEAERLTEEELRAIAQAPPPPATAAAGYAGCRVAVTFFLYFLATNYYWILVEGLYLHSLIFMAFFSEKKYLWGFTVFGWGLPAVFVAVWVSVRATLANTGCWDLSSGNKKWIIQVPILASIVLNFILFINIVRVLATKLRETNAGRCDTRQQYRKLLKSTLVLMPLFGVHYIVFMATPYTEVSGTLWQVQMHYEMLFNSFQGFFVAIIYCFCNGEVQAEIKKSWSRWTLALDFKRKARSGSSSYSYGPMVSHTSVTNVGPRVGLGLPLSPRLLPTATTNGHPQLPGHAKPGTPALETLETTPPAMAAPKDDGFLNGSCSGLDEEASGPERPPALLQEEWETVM
Test: cell-based or functional assay
PROPERTY_MEASURED: cAMP accumulation (HTRF): Emax (%)

BINDER: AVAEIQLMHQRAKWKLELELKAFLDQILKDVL [R2-36]
PROPERTY_MEASURED: cAMP accumulation (HTRF): Emax
READING_UNIT: %
QUANTITATIVE_READOUT: 99
//
BINDER: AVAEIQLMHQRAKWGLDLELRARLREILRDVY [R2-31]
PROPERTY_MEASURED: cAMP accumulation (HTRF): Emax
READING_UNIT: %
QUANTITATIVE_READOUT: 104
//
BINDER: AVAEIQLMHQRAKWELLEELLKILLELLKEYI [R2-38]
PROPERTY_MEASURED: cAMP accumulation (HTRF): Emax
READING_UNIT: %
QUANTITATIVE_READOUT: 99.1

Origin of the recorded values: patent US20220298217A1
